System: A2780 cells
Test: MTT cytotoxicity assay, A2780 cells
Details: read-out: IC50 cytotoxicity; A2780, 96 h contact time, MTT; listed as Carboplatin
Observation Type: IC50 (nM)
Reply numerically in nM, unit not repeated.

Return IC50 (reported value) for this compound: N.N.O=C([O-])C1(C(=O)[O-])CCC1.[Pt+2] [carboplatin]
2600

----------
Readings of IC50 at 96 h for the listed compounds
Assay: MTT cytotoxicity assay, non-cancer ARPE19 cells
Settings: human, ARPE19 non-cancer retinal pigment cells
Reply numerically in µM, unit not repeated.

CCCCCc1cc(O)c(C/C=C(\C)CCC=C(C)C)c(O)c1 = 17.4

We now examine a further compound.
Return IC50 at 96 h (reported value) for this compound: `C=C(C)[C@@H]1CCC(C)=C[C@H]1c1c(O)cc(CCCCC)cc1O`
11.7

----------
Tested on: A2780 cells
Experiment: MTT cytotoxicity assay, A2780 cells
Settings: read-out: IC50 cytotoxicity, recovery; A2780, 48 h exposure then drug washed out, MTT at 96 h
Observation Type: pIC50
The quantity pIC50 is defined as the negative base-10 logarithm of the molar concentration.

Return pIC50 (reported value) for this compound: `N.N.O=C([O-])C1(C(=O)[O-])CCC1.[Pt+2]`
5.33

----------
Test system: A2780 cells
Experiment: MTT cytotoxicity assay, A2780 cells
Settings: read-out: IC50 cytotoxicity, recovery; A2780, 48 h exposure then drug washed out, MTT at 96 h; listed as Carboplatin
Observation Type: pIC50
The quantity pIC50 is defined as the negative base-10 logarithm of the molar concentration.

Return pIC50 (reported value) for this compound: `N.N.O=C([O-])C1(C(=O)[O-])CCC1.[Pt+2]`
5.32

----------
Test system: A2780/CP70 cells
Assay: MTT cytotoxicity assay, A2780/CP70 cells
Conditions: read-out: IC50 cytotoxicity, recovery; A2780/CP70, 48 h exposure then drug washed out, MTT at 96 h
Observation Type: IC50 (µM)
Reply numerically in µM, unit not repeated.

Return IC50 (reported value) for this molecule: `N.N.O=C([O-])C1(C(=O)[O-])CCC1.[Pt+2]`
48.7

----------
Test system: A2780/CP70 cells
Assay: MTT cytotoxicity assay, A2780/CP70 cells
Conditions: Homo sapiens, A2780/CP70, 48 h, read-out: IC50 cytotoxicity
Description: In separate experiments, cells were seeded in 96‐well plates and after 24 h elapsed they were exposed to different concentrations of drugs or vehicle. Cells were then left in the incubator for a further 24 or 48 h. […] The selective index (SI) is the ratio of mean IC50 values for non‐cancer cells to cancer cells. […] While the isobologram can be considered predominantly as a graphical depiction of drug interactions, the combination index (CI) is a quantitative representation. […]
Observation Type: pIC50
The quantity pIC50 is defined as the negative base-10 logarithm of the molar concentration.

C=C(C)[C@@H]1CCC(C)=C[C@H]1c1c(O)cc(CCCCC)cc1O [CBD, cannabidiol] = 4.95

We now examine a further compound.
Name the recorded pIC50 of CCCCCc1cc(O)c(C/C=C(\C)CCC=C(C)C)c(O)c1 [CBG, cannabigerol] , assay system A2780/CP70 cells.
4.81

----------
System: A2780 cells
Assay: MTT cytotoxicity assay, A2780 cells
Settings: read-out: IC50 cytotoxicity; A2780, 48 h contact time, MTT
Observation Type: pIC50
The quantity pIC50 is defined as the negative base-10 logarithm of the molar concentration.

Return pIC50 (reported value) for this compound: `N.N.O=C([O-])C1(C(=O)[O-])CCC1.[Pt+2]`
4.76

----------
Readings of pIC50 for the listed compounds
Test system: A2780 cells
Assay: MTT cytotoxicity assay, A2780 cells
Conditions: Homo sapiens, A2780, 96 h, read-out: IC50 cytotoxicity
The quantity pIC50 is defined as the negative base-10 logarithm of the molar concentration.

CCCCCc1cc(O)c(C/C=C(\C)CCC=C(C)C)c(O)c1 = 5.24

We now examine a further compound.
Return pIC50 (reported value) for this compound: `C=C(C)[C@@H]1CCC(C)=C[C@H]1c1c(O)cc(CCCCC)cc1O`
5.46

----------
Test system: A2780 cells
Assay: MTT cytotoxicity assay, A2780 cells
Conditions: read-out: IC50 cytotoxicity; A2780, 24 h contact time, MTT
Method: In separate experiments, cells were seeded in 96‐well plates and after 24 h elapsed they were exposed to different concentrations of drugs or vehicle. Cells were then left in the incubator for a further 24 or 48 h. […] The selective index (SI) is the ratio of mean IC50 values for non‐cancer cells to cancer cells. […] While the isobologram can be considered predominantly as a graphical depiction of drug interactions, the combination index (CI) is a quantitative representation. […]
pIC50: −log10 of the molar value.
Observation Type: pIC50

Name the recorded pIC50 of `N.N.O=C([O-])C1(C(=O)[O-])CCC1.[Pt+2]` , assay system A2780 cells.
< 4.00

----------
System: A2780/CP70 cells
Experiment: MTT cytotoxicity assay, A2780/CP70 cells
Conditions: read-out: IC50 cytotoxicity; A2780/CP70, 24 h contact time, MTT
pIC50: −log10 of the molar value.
Observation Type: pIC50

Return pIC50 (reported value) for this molecule: `N.N.O=C([O-])C1(C(=O)[O-])CCC1.[Pt+2]`
< 4.00

----------
Tested on: A2780 cells
Test: MTT cytotoxicity assay, A2780 cells
Settings: read-out: IC50 cytotoxicity, recovery; A2780, 24 h exposure then drug washed out, MTT at 96 h
Method: In separate experiments, cells were seeded in 96‐well plates and after 24 h elapsed they were exposed to different concentrations of drugs or vehicle. Cells were then left in the incubator for a further 24 or 48 h. […] The selective index (SI) is the ratio of mean IC50 values for non‐cancer cells to cancer cells. […] While the isobologram can be considered predominantly as a graphical depiction of drug interactions, the combination index (CI) is a quantitative representation. […]
Observation Type: pIC50
The quantity pIC50 is defined as the negative base-10 logarithm of the molar concentration.

Return pIC50 (reported value) for this compound: N.N.O=C([O-])C1(C(=O)[O-])CCC1.[Pt+2] [carboplatin]
5.10

----------
Tested on: A2780/CP70 cells
Test: MTT cytotoxicity assay, A2780/CP70 cells
Conditions: read-out: IC50 cytotoxicity; A2780/CP70, 96 h contact time, MTT
Observation Type: IC50 (µM)
Reply numerically in µM, unit not repeated.

Return IC50 (reported value) for this compound: N.N.O=C([O-])C1(C(=O)[O-])CCC1.[Pt+2] [carboplatin]
44.9

----------
Test: MTT cytotoxicity assay, non-cancer ARPE19 cells
Conditions: human, ARPE19 non-cancer retinal pigment cells
Observation Type: IC50 at 72 h (µM)
Reply numerically in µM, unit not repeated.

CCCCCc1cc(O)c(C/C=C(\C)CCC=C(C)C)c(O)c1 = 19.2

We now examine a further molecule.
Return IC50 at 72 h (reported value) for this molecule: `C=C(C)[C@@H]1CCC(C)=C[C@H]1c1c(O)cc(CCCCC)cc1O`
13

----------
System: A2780/CP70 cells
Experiment: MTT cytotoxicity assay, A2780/CP70 cells
Details: read-out: IC50 cytotoxicity, recovery; A2780/CP70, 72 h exposure then drug washed out, MTT at 96 h
Observation Type: IC50
The reply should consist of the numeric value with the unit placed after it.

Return IC50 (reported value) for this compound: N.N.O=C([O-])C1(C(=O)[O-])CCC1.[Pt+2] [carboplatin]
45.5 µM

----------
Test system: A2780/CP70 cells
Assay: MTT cytotoxicity assay, A2780/CP70 cells
Conditions: read-out: IC50 cytotoxicity, recovery; A2780/CP70, 24 h exposure then drug washed out, MTT at 96 h
Observation Type: IC50 (µM)
Reply numerically in µM, unit not repeated.

Name the recorded IC50 of N.N.O=C([O-])C1(C(=O)[O-])CCC1.[Pt+2] [carboplatin] , assay system A2780/CP70 cells.
66.5
